Source of measurements: PubChem BioAssay (NCI)

Record form. Attribute: TGI. Fill in for each entry.
Tested on: DU-145 prostate
Test: NCI tumour cell line growth inhibition, 48 h
Where a SMILES comes first, the peptide text is derived from it. [ ]: non-standard residue; d: D form. ξ: configuration not given here. ξLac(3-iPr) = CC(C)CC(O)C(=O)O; NMeV = CN[CH](C(=O)O)C(C)C; NMeA = CN[CH](C)C(=O)O; βAla = NCCC(=O)O

Input line: What TGI value was documented for this molecule, CCOC(=O)c1c(C)n([O-])c2cc(Cl)c(Cl)cc2[n+]1=O ?
Output line: 30.8 µM

Input line: Same question for CCCCCCCCCCCCCCCCCCNc1nc(=O)n(C2CC(O)C(COP(=O)(O)OCC3OC(n4ccc(N)nc4=O)C(O)C3O)O2)cc1F (stereo not drawn) please.
Output line: > 100 µM

Input line: Same question for NS(=O)(=O)NCCNc1nonc1C(=Nc1ccc(F)c(Br)c1)NO please.
Output line: > 100 µM

Input line: Same question for COc1cc2c(cc1OC)C(=O)C1(C2)[C@H](c2ccccc2)C2C(=O)c3cc(OC)c(OC)cc3C2[C@H]1c1ccccc1 (stereo partly drawn) please.
Output line: > 100 µM

Input line: Same question for O=C1NNC2NC(=O)C3(NN2C1=O)c1ccccc1-c1ccccc13 (stereo not drawn) please.
Output line: > 100 µM

Input line: Same question for CN(C(=O)C1=CCC2(CC1)OCCO2)c1ccccc1I please.
Output line: > 100 µM

Input line: Same question for O=C1c2c(ccc3c2CCC3)CC12Cc1ccccc1C2 please.
Output line: > 100 µM

Input line: Same question for CCC(C)C1NC(=O)C2CCCN2C(=O)C(CC(C)C)OC(=O)CCNC(=O)C(C)N(C)C(=O)C(C(C)C)N(C)C1=O (stereo not drawn) (cyclo([ξLac(3-iPr)]PI[NMeV][NMeA][βAla]); configuration not given here) please.
Output line: > 89.2 µM

====

System: M14 melanoma
Assay: NCI tumour cell line growth inhibition, 48 h
metric: GI50

Input line: What GI50 value was documented for this compound, Clc1ccccc1CNc1c2ccccc2nc2ccccc12 ?
Output line: 2.04 µM

Input line: Same question for CCN(CC)C(=S)SCN1C(=O)c2ccccc2S1(=O)=O please.
Output line: 20.9 µM

Input line: Same question for N#Cc1cc(S(=O)(=O)Nc2nnc(-c3ccccc3)c(-c3ccccc3)n2)c(SCc2ccccc2)cc1Cl please.
Output line: 27.4 µM

Input line: Same question for CC(=O)O[C@H]1[C@@H]2OC(=O)C(CSc3ccccc3)[C@@H]2C[C@H]2O[C@]2(C)CC/C=C(\C)CCC[C@@H]1C (stereo not given in full) please.
Output line: 2.13 µM

Input line: Same question for CN(C)CCNc1c2ccccc2nc2oc3ccccc3c12 please.
Output line: 11.3 µM

====

Test system: HOP-92 NSCLC
Assay: NCI tumour cell line growth inhibition, 48 h
metric: TGI (µM)
Give the number; µM is assumed, so skip it.

Input line: What TGI value was documented for this molecule, CC(C)(C)OC(=O)NCCCC(=O)NC1(c2cc3ccccc3s2)CCCCC1 ?
Output line: 37.6

Input line: Same question for CC(C)(C)c1ccc(OCCOCCOc2ccc(C(C)(C)C)cc2S(=O)(=O)Nc2ccc([N+](=O)[O-])cc2)c(S(=O)(=O)Nc2ccc([N+](=O)[O-])cc2)c1 please.
Output line: 72.3

Input line: Same question for C[C@]12CC[C@@H]3c4ccc(O)cc4CC[C@H]3[C@@H]1CC[C@@H]2OC(=O)CCc1ccccc1 please.
Output line: 36.8

Input line: Same question for O=C1/C(=C/c2ccc(Oc3ccccc3)cc2)N=C(c2ccccc2)N1c1ccc(S(=O)(=O)Nc2nccs2)cc1 please.
Output line: 99.7

Input line: Same question for N#CC1(C#N)C2C=CC(c3coc4cccc2c34)C1(C#N)C#N (stereo not given) please.
Output line: 35

Input line: Same question for CC(CN(C)C)Oc1ccccc1NC1=C(Cl)C(=O)C(Nc2ccccc2OC(C)CN(C)C)=C(Cl)C1=O (stereo not given) please.
Output line: 0.807

Input line: Same question for Cc1ccc(C(=O)/C(=C\c2ccc([N+](=O)[O-])cc2)S(=O)Cc2ccc(Cl)cc2)cc1 (stereo not given) please.
Output line: 3.45

Input line: Same question for Cc1ccc(OCC2OC(n3cnc4c(Cl)nc(Cl)nc43)CC2Oc2ccc(C)cc2)cc1 (stereo not given) please.
Output line: 6.4

Input line: Same question for CC(=[N-])N1CCC[C@@H](Nc2c3ccccc3nc3ccccc23)C1.[Cl][Pt].[NH-]CCC[NH-] please.
Output line: 8.36

====

Tested on: ACHN renal
Experiment: NCI tumour cell line growth inhibition, 48 h
Where a SMILES comes first, the peptide text is derived from it. [ ]: non-standard residue; d: D form. ξ: configuration not given here. ξLac(3-iPr) = CC(C)CC(O)C(=O)O; NMeV = CN[CH](C(=O)O)C(C)C; NMeA = CN[CH](C)C(=O)O; βAla = NCCC(=O)O
metric: TGI

Input line: What TGI value was documented for this molecule, N=CN=CC(=S)O[C@@H]1C(=O)N2CCC[C@@]23CCCC[C@@H]13 ?
Output line: > 12.5 µM

Input line: Same question for O=C1c2c(ccc3c2CCC3)CC12Cc1ccccc1C2 please.
Output line: > 100 µM

Input line: Same question for O=C(NC(Cc1cnc[nH]1)C(=O)N1CCCC1)C1CCCC1 (centres undefined) please.
Output line: > 100 µM

Input line: Same question for CC(=O)OCC1OC(O[C@@H]2C[C@H]3C(C)(C)[C@@H](OC(C)=O)CC[C@]3(C)[C@H]3CC[C@]45C[C@]4(CC[C@H]5[C@@H](C)C[C@@H](O)[C@H](O)C(C)(C)F)[C@@]32C)C(O)C(O)C1O (some centres undefined) please.
Output line: > 100 µM

Input line: Same question for CN(C(=O)C1=CCC2(CC1)OCCO2)c1ccccc1I please.
Output line: > 100 µM

Input line: Same question for O=C1c2ccccc2-c2c1c1c(O)cccc1n2Cc1ccccn1 please.
Output line: > 100 µM

Input line: Same question for Oc1cc(N2CCCC2)ccc1/C=N/N1C(=S)N(c2ccccc2)C(=Nc2ccccc2)C1=Nc1ccccc1 please.
Output line: > 100 µM

Input line: Same question for CCCCNC(=O)C1C2CCC(O2)C1C(=O)O (centres undefined) please.
Output line: 57.7 µM

Input line: Same question for CCOC(=O)c1cc(-c2ccccc2)[nH]c1N/N=C/c1ccc(Cl)cc1 please.
Output line: > 100 µM

Input line: Same question for CC(=O)c1ccc2c(c1)CC1(C2)Cc2ccc3c(c2C1=O)CCC3 (centres undefined) please.
Output line: > 100 µM

Input line: Same question for C[N+](C)(C)CC(=O)N/N=C(\C(=O)NC1=C(Cl)C(=O)c2ccccc2C1=O)C(C#N)c1nc(-c2ccc([N+](=O)[O-])cc2)cs1 (centres undefined) please.
Output line: 26 µM

Input line: Same question for OC(c1ccc2c(c1)OCO2)c1ccc2c(c1)OCO2 please.
Output line: > 100 µM

Input line: Same question for Cc1ccnc2[nH]c(-c3ccc(F)cc3)cc(=O)c12 please.
Output line: > 100 µM

Input line: Same question for Cc1ccc(NC(=O)CSc2nnc3n(Cc4ccccc4)c(=O)c4c(C)c(C(N)=O)sc4n23)cc1 please.
Output line: 51 µM

Input line: Same question for CCC(C)C1NC(=O)C2CCCN2C(=O)C(CC(C)C)OC(=O)CCNC(=O)C(C)N(C)C(=O)C(C(C)C)N(C)C1=O (centres undefined) (cyclo([ξLac(3-iPr)]PI[NMeV][NMeA][βAla]); configuration not given here) please.
Output line: > 83.4 µM

Input line: Same question for Cc1ccc(C(=O)/C=C/c2cccc([N+](=O)[O-])c2)cc1 please.
Output line: > 100 µM

Input line: Same question for O=C1C2CCN(CC2)C1(CO)CO please.
Output line: 32.3 µM

Input line: Same question for O=S(=O)(SC1=NCCN1)c1cccc2ccccc12 please.
Output line: 70.5 µM

Input line: Same question for Clc1ccccc1CNc1c2ccccc2nc2ccccc12 please.
Output line: 6.89 µM

Input line: Same question for CC(NC(=O)c1ccc(NP(=O)(OCc2ccc([N+](=O)[O-])o2)N(C)CCCCCl)cc1)c1ccc(OCC2CCCCC2)c(C(N)=O)c1 (centres undefined) please.
Output line: > 100 µM

Input line: Same question for C/C=C(\CCOS(=O)(=O)c1ccc(C)cc1)[Si](C)(C)C please.
Output line: > 100 µM

Input line: Same question for N#Cc1cc(S(=O)(=O)Nc2nnc(-c3ccccc3)c(-c3ccccc3)n2)c(SCc2ccccc2)cc1Cl please.
Output line: 42.6 µM

Input line: Same question for N#Cc1c(N)nc(N2CCOCC2)c(C#N)c1-c1ccccn1 please.
Output line: > 100 µM

Input line: Same question for CSc1nc(C)c(CCOC(C)=O)c(Cl)n1 please.
Output line: > 100 µM

Input line: Same question for CCOC(=O)c1c(C)n(C)c2c1cc(O)c1[nH]c3c(c12)CCCC3 please.
Output line: > 100 µM

Input line: Same question for CCOC(=O)c1c(C)n([O-])c2cc(Cl)c(Cl)cc2[n+]1=O please.
Output line: > 100 µM

Input line: Same question for CCN(CCCl)c1cc(CN(C)C)cc(NC(=O)C23CCC(C(=O)Nc4cc(CN(C)C)cc(N(CC)CCCl)c4)(CC2)CC3)c1 please.
Output line: 9.22 µM

Input line: Same question for O=NNc1ccc(Sc2ccc(NN=O)cn2)nc1 please.
Output line: > 100 µM

Input line: Same question for C/C(=N\NC(=S)SCc1ccccc1)c1ccccn1 please.
Output line: 1.95 µM

Input line: Same question for COC(=O)C(C(=O)C(=O)Nc1cccc([N+](=O)[O-])c1)c1nc2ccc([N+](=O)[O-])cc2[nH]c1=O (centres undefined) please.
Output line: > 100 µM

Input line: Same question for COc1ccc2oc(C(=O)O)c3c2c1CCC3CCC(=O)O (centres undefined) please.
Output line: > 100 µM

Input line: Same question for C=C1C(=O)OC2C3C(=C)[C@@H](OC(C)=O)CC3C(C)=CC(OC(=O)C(C)(OC(C)=O)C(C)OC(C)=O)[C@@H]12 (some centres undefined) please.
Output line: 27 µM

Input line: Same question for O=C1NC(N2CCCCC2)=N/C1=C\c1ccc(Cl)cc1 please.
Output line: > 100 µM

Input line: Same question for O=C1NNC2NC(=O)C3(NN2C1=O)c1ccccc1-c1ccccc13 (centres undefined) please.
Output line: > 100 µM

Input line: Same question for O=C(O)CCC(N=NNc1ccc(-c2nc3ccccc3[nH]2)cc1)C(=O)O (centres undefined) please.
Output line: > 100 µM

Input line: Same question for COC(=O)C12OCC34C(CC5C(C)C6=CC(=O)OC6=CC5(C)C3C(O)C1O)OC(=O)C(O)C24 (centres undefined) please.
Output line: 17.1 µM

Input line: Same question for Clc1ccc(OCc2nnc3sc(-c4ccc(-c5ccc(Cl)cc5Cl)o4)nn23)cc1 please.
Output line: > 100 µM

Input line: Same question for O=c1c(-c2ccccc2F)coc2cc(F)ccc12 please.
Output line: > 100 µM

Input line: Same question for CO/N=C\c1cc(O)c(O)c(/C=N/OC)c1 please.
Output line: > 100 µM
